assay: Ability to reverse action of CpG-ODN on WEHI 231 murine B-cell lymphoma cells; type: functional, cell-based, Mus musculus
Test readout: Log 1/EC50

# Molecule, Observed value
rows = [
    ("CN1CCCC1CCNc1cc(-c2ccc(F)cc2)nc2ccccc12 (stereo not drawn)", 7.88),
    ("Cc1ccc(-c2cc(NCCCN3CCN(C)CC3)c3ccccc3n2)cc1", 7.86),
    ("Cc1ccc(-c2cc(NCCN(C)C)c3ccccc3n2)cc1", 7.91),
]

* * *

test: Ability to reverse action of CpG-ODN on WEHI 231 murine B-cell lymphoma cells; format: functional, cell-based, Mus musculus
Let's look at some compounds and their measured Log 1/EC50.

# Compound, Log 1/EC50
measured = [
    ("NCCCCCNc1cc(-c2ccc(F)cc2)nc2ccccc12", 7.81),
    ("Cc1ccc(-c2cc(NCCCn3ccnc3)c3ccccc3n2)cc1", 6.98),
    ("Cc1ccc(-c2cc(NCCCN3CCOCC3)c3ccccc3n2)cc1", 7.57),
    ("CCN(CC)CCNc1cc(-c2cccc(C)c2)nc2ccccc12", 7.65),
    ("CN(C)CCNc1cc(-c2ccc(CN3CCN(C)CC3)cc2)nc2ccccc12", 8.15),
    ("Cc1ccc(-c2cc(Nc3cc(CN4CCN(C)CC4)c(O)c(CN4CCN(C)CC4)c3)c3ccccc3n2)cc1", 8.84),
    ("Cc1cccc(-c2cc(NCCCN(C)C)c3ccccc3n2)c1", 7.88),
    ("CN(C)CCCCCNc1cc(-c2ccc(N3CCN(C)CC3)cc2)nc2ccccc12", 8.84),
    ("CN(C)CCCNc1cc(-c2ccc(F)cc2)nc2ccccc12", 7.86),
    ("CN(C)CCCNc1cc(-c2ccc(N3CCCCC3)cc2)nc2ccccc12", 7.8),
    ("CN1CCN(c2ccc(-c3cc(NCCC4CCCN4C)c4ccccc4n3)cc2)CC1 (stereo not given)", 8.7),
    ("Cc1cccc(-c2cc(OCCN(C)C)c3ccccc3n2)c1", 5.51),
    ("CN1CCN(Cc2cc(Nc3cc(-c4ccc(F)cc4)nc4ccccc34)ccc2O)CC1", 7.67),
    ("CN(C)CCCNc1cc(-c2ccc(N3CCN(C)CC3)cc2)nc2ccccc12", 9),
    ("Fc1ccc(-c2cc(NCCCCN3CCCC3)c3ccccc3n2)cc1", 7.68),
]

Entry source: ChEMBL document CHEMBL1136744
